Experiment: qHTS for Inhibitors of human tyrosyl-DNA phosphodiesterase 1 (TDP1): qHTS in cells in presence of CPT; note: nearly all actives have a fitted effect of over 55% in size
Settings: chicken DT40 Tdp1-/-;hTDP1 cells + 20 nM CPT, ATP luminescence, 48 h; series mostly up to 46.2 µM
Method: Human tyrosyl-DNA phosphodiesterase 1 (TDP1) is a novel repair gene, and we propose to use it as a new target for anticancer drug development. […] For the primary screen, Tdp1-/-;hTDP1 cells will be exposed to small molecules in the presence or absence of CPT, and their growth kinetics will be evaluated after 48 hours by measuring ATP activity. […] The hit compounds will then be evaluated in the presence or absence of CPT using Tdp1-/- cells. […]
The whole screen tested about 420,000 compounds, of which about 50,000 (12%) were called active. Another 26% or so got no clear call; they are omitted. Calls come from the whole dose curve; as a rule, active = well fitted inhibition curve with a large enough effect; inconclusive = small, poorly fitted or top-dose-only effect; inactive = flat fitted curve, though single readings scatter. This is one part of a sample in which actives are shown more often than they occur.
Allowed answers: active, inactive

COMPOUND	GROUP
Cc1ccc(F)cc1NC(=O)N1CCCN(c2ccc(C(F)(F)F)cn2)CC1	inactive
CCC(CC)c1nnc(NC(=O)C2=COCCO2)s1	inactive

What did this assay record as the result for `CCN=c1sc(C(=O)Nc2ccccc2)c(C)n1CC` ?
inactive

What did this assay record as the result for `CCC/C(C)=N\Nc1nc2c(c(=O)n(C)c(=O)n2C)n1C` ?
active

What did this assay record as the result for `COc1cccc(N(CC(=O)Nc2cccc(F)c2)S(C)(=O)=O)c1` ?
inactive

What did this assay record as the result for `NS(=O)(=O)c1cccc(NC(=O)COC(=O)c2cc([N+](=O)[O-])ccc2N2CCCC2)c1` ?
inactive

What did this assay record as the result for CC(O)c1nc2c(c(=O)n(C)c(=O)n2C)n1C (stereo not given) ?
inactive

What did this assay record as the result for `CCN(CC)S(=O)(=O)c1ccc(NC(=O)CN(c2cccc(F)c2)S(C)(=O)=O)cc1` ?
inactive

What did this assay record as the result for `Cc1cccc(N(CC(=O)Nc2ccc(-c3nc4ccc(C)cc4s3)cc2)S(C)(=O)=O)c1` ?
active

What did this assay record as the result for `Cc1cc(Cl)c2oc(C(=O)N3CCC(O)(c4ccccc4)CC3)c(C)c2c1` ?
inactive

* * *

Assay: qHTS for Inhibitors of human tyrosyl-DNA phosphodiesterase 1 (TDP1): qHTS in cells in presence of CPT; note: nearly all actives have a fitted effect of over 55% in size
Details: chicken DT40 Tdp1-/-;hTDP1 cells + 20 nM CPT, ATP luminescence, 48 h; series mostly up to 46.2 µM
In all, about 420,000 compounds went through this assay and about 50,000 (12%) were called active. About 26% were inconclusive and are not listed. The call rests on the fitted dose curve; in most records, active means well fitted inhibition curve with a large enough effect; inconclusive means small, poorly fitted or top-dose-only effect; inactive means flat fitted curve, though single readings scatter. This is one part of a sample in which actives are shown more often than they occur.
Allowed answers: 1 for active, 0 for inactive

MOLECULE	GROUP
Cc1cc(C)n2nc(C(=O)OC(C)C(=O)c3cc(C)c(C)cc3C)nc2n1 (stereo not given)	0
COc1ccc(NC(=O)C2CCC(CNC(=O)[C@@H]3Cc4ccccc4CN3)CC2)cc1 (stereo not given in full)	0
Cc1nc(C(F)(F)F)ccc1C(=O)N1CCC1(C)C(=O)NS(=O)(=O)c1ccccc1 (stereo not given)	0

What did this assay record as the result for `CCN(CC)c1ccc(C(=O)N/N=C/c2ccc(N3CCOCC3)cc2)cc1` ?
0

What did this assay record as the result for `COc1ccc(CCNC(=O)c2cc(-c3ccc4c(c3)OCO4)on2)cc1OC` ?
0
